# credit: patent US20210347900A1

Molecular target: T1, Human CLEC-4L (DC-SIGN) (human, UniProt Q9NNX6 62-404)
T1 construct: Bought protein; also called C-type lectin domain family 4 member L
T1 sequence (looked up): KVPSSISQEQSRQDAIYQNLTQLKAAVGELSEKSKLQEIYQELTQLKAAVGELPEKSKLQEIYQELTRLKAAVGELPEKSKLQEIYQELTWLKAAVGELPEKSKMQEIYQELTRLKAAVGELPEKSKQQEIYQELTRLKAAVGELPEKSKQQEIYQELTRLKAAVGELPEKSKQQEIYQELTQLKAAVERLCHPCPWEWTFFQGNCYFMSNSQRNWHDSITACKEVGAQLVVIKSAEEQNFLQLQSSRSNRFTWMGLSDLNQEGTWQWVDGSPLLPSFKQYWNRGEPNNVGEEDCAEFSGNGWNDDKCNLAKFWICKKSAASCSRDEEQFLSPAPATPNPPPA
Test: IgG binding ELISA on coated antigen, absorbance at 450 nm;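 note: specificity panel of related human receptors, coated alongside human LOX1 as the binding positive control, with an isotype human IgG1-TM antibody setting the nonspecific background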
recorded_endpoint: binding result

>  <binder>
LX5140093_N>D IgG1-TM (antibody, V domains shown, Whole human IgG1-TM; Heavy chain N96D (Kabat) variant of LX5140093; also called LX5140093_D) VH: QVQLVQSGAEVKKPGASVKVSCKVSGYTLTELSMHWVRQAPGKGLEWMGGFDPEDWAYHQAQKFQGRVTMTEDTSTDTAYMELSSLRSEDTAVYYCATPDGQQGKGVRGWDYYYGMDVWGQGTTVTVSS VL: QSVVTQPPSVSGAPGQRVTISCTGSSSNIGAGYDVHWYQQLPGTAPKLLIYGNSNRPSGVPDRFSGSKSGTSASLAITGLQAEDEADYYCQSYDSSHRAWAFGGGTKLTVL

>  <recorded_endpoint>
binding result

>  <meas_value>
no binding

$$$$
>  <binder>
LX6960073_gl IgG1-TM (antibody, V domains shown, Whole human IgG1-TM, germlined) VH: EVQLVESGGGLVQPGRSLRLSCAASGFTSDDYAMHWVRQAPGKGLEWVSGISWNSGSIGYADSVKGRFTISRDNAKNSLYLQMNGLRAEDTAVYYCAREGSWNYDALDIWGQGTMVTVSS VL: QSALTQPASVSGSPGQPITISCTGTSSDVGGYNYVSWYQQHPGKAPKLMIYDVSKRPSGVSNRFSGSKSGNTASLTISGLQAEDEADYYCMGGMGRSTNWVFGGGTKLTVL

>  <recorded_endpoint>
binding result

>  <meas_value>
no binding

$$$$
